Molecular target: Nuclear receptor ROR-gamma (Homo sapiens) (UniProt P51449)
Sequence (whole entry): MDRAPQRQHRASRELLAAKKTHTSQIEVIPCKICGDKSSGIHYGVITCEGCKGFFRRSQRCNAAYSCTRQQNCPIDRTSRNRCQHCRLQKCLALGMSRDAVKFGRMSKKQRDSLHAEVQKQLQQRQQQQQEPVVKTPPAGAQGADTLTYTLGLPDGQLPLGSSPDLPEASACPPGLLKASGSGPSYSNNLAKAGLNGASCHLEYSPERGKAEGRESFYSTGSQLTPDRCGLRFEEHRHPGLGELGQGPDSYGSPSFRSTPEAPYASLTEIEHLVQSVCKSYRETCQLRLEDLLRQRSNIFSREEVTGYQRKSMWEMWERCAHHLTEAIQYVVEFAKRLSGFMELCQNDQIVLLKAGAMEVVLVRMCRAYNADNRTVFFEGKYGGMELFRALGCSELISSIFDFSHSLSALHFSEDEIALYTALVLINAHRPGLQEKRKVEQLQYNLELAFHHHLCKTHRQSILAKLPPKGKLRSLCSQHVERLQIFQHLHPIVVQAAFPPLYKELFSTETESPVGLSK
Parameter: ΔTm (°C)
Give the number; °C is assumed, so skip it.

Guide cases for ΔTm, answers given:
Request: # return recorded ΔTm for input O=[N+]([O-])c1ccccc1CS(=O)(=O)Nc1ccc(-c2ccc(C(O)(C(F)(F)F)C(F)(F)F)cc2F)cc1
Response: 1

Request: # return recorded ΔTm for input COC(=O)c1ccc(CS(=O)(=O)Nc2ccc(-c3ccc(C(O)(C(F)(F)F)C(F)(F)F)cc3F)cc2)cc1
Response: 8

Request: # return recorded ΔTm for input O=[N+]([O-])c1cccc(CS(=O)(=O)Nc2ccc(-c3ccc(C(O)(C(F)(F)F)C(F)(F)F)cc3F)cc2)c1
Response: 3.5

More entries:
Request: # return recorded ΔTm for input CC(=O)CCCC(=O)Nc1ccc(-c2ccc(C(O)(C(F)(F)F)C(F)(F)F)cc2F)cc1
Response: 5

Request: # return recorded ΔTm for input O=C(CCC(F)(F)F)Nc1ccc(-c2ccc(C(O)(C(F)(F)F)C(F)(F)F)cc2F)cc1
Response: 7.8

Request: # return recorded ΔTm for input COC(=O)CCCC(=O)Nc1ccc(-c2ccc(C(O)(C(F)(F)F)C(F)(F)F)cc2F)cc1
Response: 5.4

Request: # return recorded ΔTm for input NC(=O)c1ccc(CS(=O)(=O)Nc2ccc(-c3ccc(C(O)(C(F)(F)F)C(F)(F)F)cc3F)cc2)cc1
Response: 0

Request: # return recorded ΔTm for input CS(=O)(=O)c1ccc(CS(=O)(=O)Nc2ccc(-c3ccc(C(O)(C(F)(F)F)C(F)(F)F)cc3F)cc2)cc1
Response: 1

* * *

experiment: in vivo; settings: Sprague-Dawley, rat, po, 10 mg/kg
Listed below: Cmax values for each entry.
Give the number; ng/mL is assumed, so skip it.

Request: # return recorded Cmax for input CS(=O)(=O)c1ccc(CC(=O)Nc2ccc(-c3ccc(C(O)(C(F)(F)F)C(F)(F)F)cc3F)cc2)cc1
Response: 1420

// below: Cmax requested for another compound
Request: # return recorded Cmax for input O=C(Cc1ccccc1[N+](=O)[O-])Nc1ccc(-c2ccc(C(O)(C(F)(F)F)C(F)(F)F)cc2F)cc1
Response: 721

* * *

target: UniProt:P35398
Sequence (P35398 whole entry): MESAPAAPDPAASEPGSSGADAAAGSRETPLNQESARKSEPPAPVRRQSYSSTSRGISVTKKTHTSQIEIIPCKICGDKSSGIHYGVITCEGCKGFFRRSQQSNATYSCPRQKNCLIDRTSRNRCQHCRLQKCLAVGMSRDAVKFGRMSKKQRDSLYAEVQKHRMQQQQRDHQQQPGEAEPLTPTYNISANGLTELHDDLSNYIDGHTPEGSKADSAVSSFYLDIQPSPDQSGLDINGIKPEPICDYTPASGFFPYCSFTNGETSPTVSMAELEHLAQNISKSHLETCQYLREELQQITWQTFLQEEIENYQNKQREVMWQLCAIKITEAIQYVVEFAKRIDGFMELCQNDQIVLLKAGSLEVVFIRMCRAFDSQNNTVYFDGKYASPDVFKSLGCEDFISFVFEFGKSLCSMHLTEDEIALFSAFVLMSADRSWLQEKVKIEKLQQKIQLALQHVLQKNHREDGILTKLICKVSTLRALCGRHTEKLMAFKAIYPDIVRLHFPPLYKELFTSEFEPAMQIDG
Parameter: IC50 (nM)
Give the number; nM is assumed, so skip it.

Request: Provide UniProt:P35398 IC50 reading for CCCCCCC(=O)Nc1ccc(-c2ccc(C(O)(C(F)(F)F)C(F)(F)F)cc2F)cc1 .
Response: 1740

* * *

Listed below: Cmax values for each entry.
experiment: in vivo; conditions: Sprague-Dawley, rat, iv, 2 mg/kg
Give the number; ng/mL is assumed, so skip it.

Request: # return recorded Cmax for input O=C(Cc1ccccc1[N+](=O)[O-])Nc1ccc(-c2ccc(C(O)(C(F)(F)F)C(F)(F)F)cc2F)cc1
Response: 839

// below: Cmax requested for another molecule
Request: # return recorded Cmax for input CS(=O)(=O)c1ccc(CC(=O)Nc2ccc(-c3ccc(C(O)(C(F)(F)F)C(F)(F)F)cc3F)cc2)cc1
Response: 980

* * *

target: Nuclear receptor ROR-gamma (Homo sapiens)
Listed below: ΔTm values for each entry.
Give the number; °C is assumed, so skip it.

Guide cases for ΔTm, answers given:
Request: Provide Nuclear receptor ROR-gamma (Homo sapiens) ΔTm reading for N#Cc1ccc(CS(=O)(=O)Nc2ccc(-c3ccc(C(O)(C(F)(F)F)C(F)(F)F)cc3F)cc2)cc1 .
Response: 0

Request: Provide Nuclear receptor ROR-gamma (Homo sapiens) ΔTm reading for COC(=O)CCC(=O)Nc1ccc(-c2ccc(C(O)(C(F)(F)F)C(F)(F)F)cc2F)cc1 .
Response: 5.2

Request: Provide Nuclear receptor ROR-gamma (Homo sapiens) ΔTm reading for COC(=O)c1ccccc1CS(=O)(=O)Nc1ccc(-c2ccc(C(O)(C(F)(F)F)C(F)(F)F)cc2F)cc1 .
Response: 2

More entries:
Request: Provide Nuclear receptor ROR-gamma (Homo sapiens) ΔTm reading for Nc1ccc(CC(=O)Nc2ccc(-c3ccc(C(O)(C(F)(F)F)C(F)(F)F)cc3F)cc2)cc1 .
Response: 1.5

Request: Provide Nuclear receptor ROR-gamma (Homo sapiens) ΔTm reading for CNC(=O)c1ccc(CS(=O)(=O)Nc2ccc(-c3ccc(C(O)(C(F)(F)F)C(F)(F)F)cc3F)cc2)cc1 .
Response: 0

* * *

Listed below: ΔTm values for each entry.
molecular target: Nuclear receptor ROR-gamma (Homo sapiens) (UniProt P51449)
Give the number; °C is assumed, so skip it.

Request: # return recorded ΔTm for input O=[N+]([O-])c1ccc(CS(=O)(=O)Nc2ccc(-c3ccc(C(O)(C(F)(F)F)C(F)(F)F)cc3F)cc2)cc1
Response: 1.5

More entries:
Request: # return recorded ΔTm for input CCCCCCC(=O)Nc1ccc(-c2ccc(C(O)(C(F)(F)F)C(F)(F)F)cc2F)cc1
Response: 5.8

Request: # return recorded ΔTm for input O=C(Cc1ccc([N+](=O)[O-])cc1)Nc1ccc(-c2ccc(C(O)(C(F)(F)F)C(F)(F)F)cc2F)cc1
Response: 6
